tested on: NCI-H226 lung; assay: NCI-60 one-dose screen, 48 h; conditions: 10 µM unless noted
This is part of a sample that, as a whole, favours compounds with a hit. Of some 83,000 tested, about 20% had one in any assay. Active and inactive are the calls of the source. Rule for the calls: active = growth percent below 10; inactive = the rest.
Choose one outcome from this list and give only that: y = active, n = inactive

1. NS(=O)(=O)c1ccc(Nc2nc(N/N=C/c3cc(Br)c(O)c(Br)c3)nc(Nc3ccccc3)n2)cc1 :: n
2. O=C(N=Nc1c(O)[nH]c2ccc(Cl)cc12)c1ccc2nc(-c3ccc(Cl)cc3)[nH]c2c1 :: n
3. O=C(N/N=C/c1occc1Br)c1[nH]c2ccc(Br)cc2c1-c1ccccc1 :: y

Query: // param item: `O=C1Nc2cc(-c3ccc(NS(=O)(=O)c4ccc(C(F)(F)F)cc4)cc3)ccc2/C1=C/c1ccc[nH]1` ; yields the recorded call
Reply: n

###

test system: NCI-H226 lung; assay: NCI-60 one-dose screen, 48 h (100 = growth as untreated, 0 = no growth, -100 = all killed); details: 10 µM unless noted
Compounds without any hit were thinned out: in the full panel of roughly 83,000, 20% have a hit.
Assign yes (1) whenever growth does not fall below 30%; assign no (0) whenever it does.

1. N#CC1=C(c2cccs2)Nc2c(c(-c3ccccc3)nn2-c2ccccc2)C12C(=O)Nc1ccc(Cl)cc12 (centres undefined) :: yes (1)
2. Cc1ccccc1NC(=O)c1cccc(NC(=O)CCl)c1 :: yes (1)
3. Cn1ncc2c(N)nc(Oc3ccccc3-c3ccccc3)nc21 :: yes (1)
4. O=Cc1cncc(-c2ccc3ncnc(N4CCc5cc(F)c(Cl)cc54)c3c2)c1 :: no (0)

Query: growth >= 30% for `CCOc1ccc(-c2cc(-c3cc(C(C)C)c(O)cc3C)nn2-c2ccc(S(N)(=O)=O)cc2)cc1` ?
Reply: yes (1)

Query: growth >= 30% for CC1=C(C(=O)Nc2ccccc2)C(c2cccc(Cl)c2Cl)n2c(nc3ccccc32)N1 (centres undefined) ?
Reply: yes (1)

Query: growth >= 30% for `O=C(NN1C(=O)/C(=C/C=C/c2ccc([N+](=O)[O-])o2)SC1=S)c1ccncc1` ?
Reply: no (0)

Query: growth >= 30% for `O=C1/C(=C/c2cnc(-c3ccccc3)s2)SC(=S)N1Cc1ccc2c(c1)OCO2` ?
Reply: yes (1)

Query: growth >= 30% for COc1ccc(C2=Nc3c(N)nc(N)nc3NC(c3ccc(Oc4nc(Nc5ccc(F)cc5)nc(N(C)C)n4)c(OC)c3)C2)cc1 (centres undefined) ?
Reply: yes (1)

Query: growth >= 30% for `CN1C(=O)/C(=C\C(=O)c2cc3ccccc3oc2=O)c2ccccc21` ?
Reply: yes (1)

Query: growth >= 30% for `N#C/C(=C1/C(=O)Nc2ccccc21)c1nnc(NC(=O)c2ccc(-n3c(=O)[nH]c4ccccc4c3=O)cc2)s1` ?
Reply: yes (1)

Query: growth >= 30% for `N#Cc1cc(-c2ccnc(Nc3ccc(N4CCN(C5COC5)CC4)cc3)n2)ccc1N1CCCC1` ?
Reply: yes (1)

Query: growth >= 30% for `O=c1[nH]c2ccccc2cc1CSc1ccccc1Nc1nccc(-c2ccc3c(c2)OCO3)n1` ?
Reply: yes (1)

Query: growth >= 30% for `Cc1ccc2c(c1)nc(-c1ccccc1)n2CC(=O)N=Nc1c(O)[nH]c2ccc(Cl)cc12` ?
Reply: no (0)

Query: growth >= 30% for `O=C1NC(=S)/C(=C/c2cn(-c3ccccc3)nc2-c2ccccc2)S1` ?
Reply: yes (1)

Query: growth >= 30% for `COc1ccc2[nH]c(O)c(N=Nc3nc(-c4ccc(Br)cc4)cs3)c2c1` ?
Reply: no (0)

Query: growth >= 30% for `C#CCN(C)CCCOc1ccc(N(CC)C(=O)c2cc(C(C)C)c(O)cc2O)cc1Cl` ?
Reply: no (0)

Query: growth >= 30% for `O=C1Nc2ccc(F)cc2/C1=C/C(=O)c1cc2ccccc2oc1=O` ?
Reply: yes (1)

###

tested on: HCC-2998 colon; test: NCI-60 one-dose screen, 48 h; settings: 10 µM unless noted
Compounds without any hit were thinned out: in the full panel of roughly 83,000, 20% have a hit. Calls of active or inactive are those of the source. How the source made its calls: active means growth percent below 10; inactive means the rest.
Choose one outcome from this list and give only that: class 1 = active, class 0 = inactive

Solved cases (4 shown):
1. NCCCCn1c(SCCc2c[nH]c3ccccc23)nnc1-c1ccc2ccccc2n1 :: class 1
2. CC1=C(C)C(=O)C(NCCN2CCOCC2)=C(Br)C1=O :: class 0
3. Cc1ccc(Cl)cc1NC(=O)Nc1nc2ccc([N+](=O)[O-])cc2s1 :: class 1
4. c1ccc(CSc2nnc(-c3ccc4nc(-c5ccccc5)[nH]c4c3)o2)cc1 :: class 0

Query: // param item: `COc1cc(CNC(=O)C[C@H](C)CCC=C(C)C)ccc1OCc1cn(-c2ccc(Cl)c(Cl)c2)nn1` ; yields the recorded call
Reply: class 0

Query: // param item: `N#C/C(=C1/C(=O)Nc2ccccc21)c1nnc(NC(=O)c2ccc(-n3c(=O)[nH]c4ccccc4c3=O)cc2)s1` ; yields the recorded call
Reply: class 0

###

tested on: MDA-MB-468 breast; assay: NCI-60 one-dose screen, 48 h (100 = growth as untreated, 0 = no growth, -100 = all killed); conditions: 10 µM unless noted
Compounds without any hit were thinned out: in the full panel of roughly 83,000, 20% have a hit. Active and inactive are the calls of the source. How the source made its calls: active means growth percent below 10; inactive means the rest.
Reported growth is given for each of the following molecules.

1) COc1cc(C2C(C(=O)OCc3ccccc3)=C(C)Nc3nc4ccccc4n32)cc(OC)c1OC (stereo not given) :: -38% (active)
2) COc1cc(/C=C/C(=O)c2cnn(-c3cc(=O)[nH]c4ccc(Br)cc34)c2C)cc(OC)c1OC :: -80.6% (active)
3) C[C@@H](Nc1c(C#N)cnc2ccc(-c3cnc4[nH]ncc4c3)cc12)c1ccccc1 :: -70.1% (active)

Query: What does the data say about its growth? Entry: `Cc1oc(-c2ccccc2)nc1CN[C@@H]1C[C@@H]2C[C@H]([C@H]1C)C2(C)C`
Reply: -83.7% (active)

Query: What does the data say about its growth? Entry: `O=C(NNC(=S)NC(=O)c1ccccc1)c1ccc(OCc2nc3ccc(Cl)cc3[nH]2)cc1`
Reply: -41% (active)

###

tested on: SF-295 CNS; test: NCI-60 one-dose screen, 48 h (100 = growth as untreated, 0 = no growth, -100 = all killed); settings: 10 µM unless noted
The panel holds about 83,000 compounds, 20% with a hit somewhere; the sample as a whole holds those more often.
Assign class 1 whenever growth does not fall below 20%; assign class 0 whenever it does.

Solved cases (3 shown):
1) O=C1NC(=S)/C(=C/c2cn(-c3ccccc3)nc2-c2ccccc2)S1 :: class 0
2) Cc1ccc2nc(SCc3ccccc3F)n(-c3ccccc3)c(=O)c2c1 :: class 1
3) COc1c2c(cc3c1C(CCc1ccccc1)N(C)CC3)OCO2 (stereo not given) :: class 0

Query: growth >= 20% for `COc1ccc2[nH]c(O)c(N=NC(=O)c3ccc4nc(-c5ccc(Cl)cc5)[nH]c4c3)c2c1` ?
Reply: class 1

Query: growth >= 20% for CC(C)(C)C(=O)C1CC(C#N)=C2C=Cc3c(ccc4ccccc34)N21 (stereo not given) ?
Reply: class 1

Query: growth >= 20% for `C#CCN(C)CCCOc1ccc(N(CC)C(=O)c2cc(C(C)C)c(O)cc2O)cc1Cl` ?
Reply: class 0

###

tested on: SF-539 CNS; assay: NCI-60 one-dose screen, 48 h; details: 10 µM unless noted
The panel holds about 83,000 compounds, 20% with a hit somewhere; the sample as a whole holds those more often. Active and inactive are the calls of the source. Rule for the calls: active = growth percent below 10; inactive = the rest.
Choose one outcome from this list and give only that: active, inactive

Query: // param item: N#CC1=C(c2ccco2)Nc2c(c(-c3ccccc3)nn2-c2ccccc2)C12C(=O)Nc1ccc(Cl)cc12 (centres undefined) ; yields the recorded call
Reply: active

Query: // param item: `N#Cc1c(-c2ccc(F)cc2)nc(SCc2ccccc2)nc1N1CCNCC1` ; yields the recorded call
Reply: active

Query: // param item: `COc1ccc2[nH]c(O)c(N=Nc3nc(-c4ccccc4)cs3)c2c1` ; yields the recorded call
Reply: active

Query: // param item: `COC(=O)c1cc(C(C)=O)n2c3ccccc3c3ccccc3c12` ; yields the recorded call
Reply: inactive

Query: // param item: `CC[C@]12C=CCN3CC[C@@]4(c5ccc(OC)cc5N(C)[C@H]4[C@@](O)(C(=O)OC)[C@@H]1OC(=O)CCCC[P+](c1ccc(F)cc1)(c1ccc(F)cc1)c1ccc(F)cc1)[C@@H]32` ; yields the recorded call
Reply: inactive

Query: // param item: `C=CCSc1nnc(-c2c(C)nc3sccn23)o1` ; yields the recorded call
Reply: inactive

###

test system: NCI/ADR-RES ovarian; experiment: NCI-60 one-dose screen, 48 h (100 = growth as untreated, 0 = no growth, -100 = all killed); details: 10 µM unless noted
This is part of a sample that, as a whole, favours compounds with a hit. Of some 83,000 tested, about 20% had one in any assay.
Assign Met whenever growth does not fall below -30%; assign Not met whenever it does.

1. COc1cc2cc(C(=O)N3C[C@@H](CCl)c4c3cc(OC(=O)N(C)CCSSCCN3CCOCC3)c3ccccc43)[nH]c2c(OC)c1OC :: Not met
2. CC1=C(C(=O)Nc2ccccc2)C(c2ccc3ccccc3c2)n2c(nc3ccccc32)N1 (stereo not drawn) :: Met
3. O=C(N/N=C/c1ccc(Br)o1)c1[nH]c2ccc(Br)cc2c1-c1ccccc1 :: Not met
4. O=C(COc1ccc(/C=C2/C(=O)Nc3ccc(Cl)cc32)cc1)Nc1ccc(Br)cc1 :: Not met
5. COC(=O)c1c(C(=O)OC)c2c3ccccc3c3ccccc3n2c1C(=O)C(C)(C)C :: Met

Query: growth >= -30% for `CN(C)C(=O)c1cc(-c2ccc3ncnc(N4CCc5cc(F)c(Cl)cc54)c3c2)cnc1N` ?
Reply: Met

Query: growth >= -30% for `COc1cc(CNC(=O)C[C@H](C)CCC=C(C)C)ccc1OCc1cn(-c2ccc(Cl)cc2Cl)nn1` ?
Reply: Met

Query: growth >= -30% for `COc1cc2cc(C(=O)N3C[C@@H](CCl)c4c3cc(OC(=O)N(CCC(=O)N3CCN(C)CC3)[C@H]3CCSSC3)c3ccccc43)[nH]c2c(OC)c1OC` ?
Reply: Not met
